Tested on: Fibroblast
Test: Multiplex assay against human fibroblast
Assay type: toxicity, cell-based
Settings: 12 h, 10 µM, compound concentration 10 uM, replicate 2
Parameter: Population Pyknosed Nuclei (%). Scope: all listed entries.
Experimental endpoint: Population Pyknosed Nuclei (%)

* Cc1c(P(=S)(c2ccccc2)c2ccccc2)n2ccccc2[n+]1C/C=C/c1ccccc1.[Br-] | 68
* CCCc1cc(C)[nH]c(=O)c1CNC(=O)c1cc(-c2ccc(N3CCN(C(C)C)CC3)nc2)cc2c1cnn2C(C)C | 38
* CC[C@@]1(O)C(=O)OCc2c1cc1n(c2=O)Cc2cc3ccccc3nc2-1 [CAMPTOTHECIN] | 4
* CC[C@H](Nc1ncnc2[nH]cnc12)c1nc2cccc(F)c2c(=O)n1-c1ccccc1 [IDELALISIB] | 8
* CCOc1ccn(-c2ccc(F)cc2)c(=O)c1C(=O)Nc1ccc(Oc2ccnc(N)c2Cl)c(F)c1 [BMS-777607] | 8
* Cc1ccc(NC(=O)Nc2cc(C(F)(F)F)ccc2F)cc1Nc1ccc2c(c1)NC(=O)/C2=C\c1ccc[nH]1 | 9
* CC(C)c1cc(Nc2nc(N3CCC[C@H](N)C3)ncc2C(N)=O)cc(C(C)C)n1 | 48
* CC(Cc1ccc(O)c(O)c1)C(C)Cc1ccc(O)c(O)c1 (centres undefined) [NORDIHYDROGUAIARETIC ACID] | 5
* CCCCN(CC)c1nc(C)nc2c1c(C)cn2-c1c(C)cc(C)cc1C.Cl | 6

---

Test system: HEK-293T
Test: Multiplex assay against HEK293T
Type: toxicity, cell-based
Details: human, 24 h, 10 µM, compound concentration 10 uM, replicate 1
Experimental endpoint: Population Fragmented Nuclei (%)

* CN1CCN(Cc2ccc(-c3cnc4[nH]cc(-c5ccc6[nH]ccc6c5)c4c3)cc2)CC1 | 16
* Cc1ccc(NC(=O)Nc2cc(C(F)(F)F)ccc2F)cc1Nc1ccc2c(c1)NC(=O)/C2=C\c1ccc[nH]1 | 7
* CC[C@@]1(O)C(=O)OCc2c1cc1n(c2=O)Cc2cc3ccccc3nc2-1 | 11
* Cl.NC[C@@H]1O[C@H](C23CC4CC(CC(C4)C2)C3)Cc2c1ccc(O)c2O | 15
* CC(Cc1ccc(O)c(O)c1)C(C)Cc1ccc(O)c(O)c1 (stereo not drawn) [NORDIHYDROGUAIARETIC ACID] | 17
* CCCc1cc(C)[nH]c(=O)c1CNC(=O)c1cc(-c2ccc(N3CCN(C(C)C)CC3)nc2)cc2c1cnn2C(C)C | 15
* CC[C@H](Nc1ncnc2[nH]cnc12)c1nc2cccc(F)c2c(=O)n1-c1ccccc1 | 11

---

Parameter: Population Normal (%). Scope: all listed entries.
System: U2OS
Experiment: Multiplex assay against U2OS
Assay type: toxicity, cell-based
Conditions: human, 48 h, 1 µM, compound concentration 1 uM, replicate 2
Experimental endpoint: Population Normal (%)

• CC(/C=C1\SC(=S)N(CCCC(=O)Nc2ccc(C(=O)O)c(O)c2)C1=O)=C\c1ccccc1 = 95%
• C=CC(=O)Nc1cc(-n2c(=O)ccc3cnc4ccc(-c5ccc(NS(C)(=O)=O)cc5)cc4c32)ccc1C = 96%
• CN(c1cc(C(F)(F)F)nc(OCCC(=O)O)n1)c1cccc2c1CCC2 = 93%
• Cl.NC[C@@H]1O[C@H](C23CC4CC(CC(C4)C2)C3)Cc2c1ccc(O)c2O = 96%
• CCCCCNC(=N)N/N=C/c1c[nH]c2ccc(OC)cc12.O=C(O)/C=C\C(=O)O [TEGASEROD MALEATE] = 98%

Data origin: ChEMBL document CHEMBL4689842
